- Test system: Lefty1
- protocol details: Lefty1 protein binding to printed compounds – biochemical, small-molecule microarray, 635/667 nm fluorescence, primary screen (AID 1139)
- condition details: fluorescence 635/667, higher = more signal
test readout: composite z-score

COC(=O)[C@@]1(Cc2ccc(OC)cc2)[C@H]2c3cc(C(=O)N4CCCC4)n(CCc4ccc(O)c(O)c4)c3C[C@H]2CN1C(=O)c1ccccc1 ... -0.958
O=C(NCCN1CCOCC1)[C@@H]1c2ccccc2C(=O)N(Cc2cc(C(F)(F)F)cc(C(F)(F)F)c2)[C@H]1c1ccc(CO)cc1 ... -0.75
NC(=O)NCC#Cc1ccc2c(c1)[C@]1(C(=O)N2)[C@H](C(=O)O)[C@H]2C(=O)O[C@H](c3ccccc3)[C@H](c3ccccc3)N2[C@@H]1c1ccc(O)cc1 ... 0.654
CCCC[C@@H]1C[C@H]1[C@@H](NC(=O)c1cccnc1)c1ccc(Cl)cc1 ... -2.59
CN(C)CCCCCCNC(=O)[C@@H]1C[C@@H]2C(=O)N3CCC[C@H]3C(=O)N2[C@@H]1c1ccc(O)cc1 ... 1.72

Please go through the list and note composite z-score for each compound.
1. CCN(CC)c1ccc(N2CC=CC34O[C@@H]5/C=C\CCC(C)OC(=O)C5[C@H]3C(=O)N(CCCCCO)[C@@H]4C2=O)cc1 (some centres not stated)
2. CC(C)[Si](C#CCCCC#N)(O[C@H](c1ccccc1)c1cn(Cc2cccc(Cl)c2)nn1)C(C)C

1. -0.978
2. 0.764

###

- measured target: Follistatin-related protein 3 (Homo sapiens)
- protocol details: compounds binding follistatin-related protein 3 – biochemical, small-molecule microarray, 635 nm fluorescence, primary screen (AID 1105);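 further: score merges emission near 667 nm and signal to noise per printed spot across three slides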
- condition details: FSTL3 binding, higher = more signal
test readout: composite z-score
Give bare numbers.

Please go through the list and note composite z-score for each compound.
1. C=C[C@H](C)[C@@H](OC(=O)Nc1ccc(SC)cc1)c1ccc(O)c2ccccc12
2. CCCCCCCCCCC(O)C1C=CC2C(=O)NC(=O)C2N1Nc1ccc(Cl)cc1Cl (stereo unspecified)

1. 1.44
2. -0.88

###

- protocol details: S6 kinase pathway phospho-S6 level changes – cell-based, A549, cytoblot, luminescence, serum-stimulated, primary screen (AID 1158);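 further: serum-stimulated A549 lung adenocarcinoma cells; signal is phosphorylated S6 detected by cytoblot immunostaining with HRP secondary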
- condition details: 5 h, higher = more signal
test readout: z-score
One number for each entry.

Look over these answered cases.
CCCCN1CC=CC23O[C@@H]4C=CCOC(=O)[C@@H]4[C@H]2C(=O)N(CCCCCCO)[C@@H]3C1=O (stereo partly specified) ... 0.133
C#CCOc1ccc(C[C@@H](C(=O)OC)N(CC#C)[C@@H](/C=C/C2CC2)[C@H](O)Cc2ccccc2)cc1 ... -0.138
O=C1OCC=C[C@H]2OC34C=CCN(CCN5CCOCC5)C(=O)[C@H]3N(CCO)C(=O)[C@@H]4[C@@H]12 (stereo partly specified) ... -0.822
COC(=O)[C@H](Cc1ccccc1)N[C@H](/C=C/C1CC1)[C@@H](O)Cc1ccccc1 ... 2.14

Please go through the list and note z-score for each molecule.
1. NCCCCCNC(=O)[C@H]1C[C@H]2C(=O)N3CCC[C@H]3C(=O)N2[C@H]1c1ccc(O)cc1
2. O=C1[C@@]23C=C(Br)[C@H](C[C@@H]2COC3)[C@]12CO2
3. O=C(O)C1N=C(c2ccc(OCCCO)cc2)N(c2ccccc2)O1 (stereo unspecified)
4. O=C1C2C=CC(C(O)c3cc(C(F)(F)F)cc(C(F)(F)F)c3)N(Nc3ccccc3)C2C(=O)N1c1ccccc1 (stereo unspecified)
5. COCCOC(=O)N1C(=O)[C@@]2(c3cc(C#CCCO)ccc31)[C@H](c1ccc(OCCO)cc1)N1[C@H](c3ccccc3)[C@H](c3ccccc3)OC(=O)[C@H]1[C@@H]2C(N)=O

1: -0.604; 2: 0.424; 3: -0.284; 4: -0.62; 5: -0.296

Please go through the list and note z-score for each molecule.
1. CC(=O)NCCCC[C@@H]1NC(=O)[C@H]2C[C@@H](C(=O)NCCCCCNC(=O)CS)[C@@H](c3ccc(O)cc3)N2C1=O
2. CC(C)NC(=O)[C@@]1(Cc2ccccc2I)c2ccccc2C(=O)N(Cc2ccccc2Cl)[C@H]1c1ccc(CO)cc1

1. -0.591
2. 0.026
